A collection of compounds and their measured normalized growth
- test.protocol: chemical genetic growth profiling, strain panel (AID 1159580);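 also: tested at 20 µM; growth read once vehicle control cultures reached saturation at 30 °C; 1 = growth at the plate median or of vehicle wells; lower values mean less growth of the strain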
- condition.parameters: S. cerevisiae deletion strains, growth OD, locus YBL061C, strain skt5, active compounds read low
The campaign covered roughly 5,500 compounds. About 2,000 (36%) were called active. Another 18% or so got no clear call; they are omitted. The list shows a part of the results. Where a SMILES comes first, the peptide text is derived from it. Bridges are numbered along the chain shown (N, C = ends). [ ]: non-standard residue; d: D form. The star is where a group is joined. ξ: configuration not given here. ξDab(CH2SO3H) = NC(CCNCS(=O)(=O)O)C(=O)O; Heptanoyl(6-Me) = CC(C)CCCCC(=O)*; Dab = NCC[CH](N)C(=O)O

| compound | normalized growth |
| --- | --- |
| O=c1oc2cc(O)ccc2s1 | 1.01 (inactive) |
| CCC(C)C1NC(=O)C(CCNCS(=O)(=O)O)NC(=O)C(NC(=O)C(CCNCS(=O)(=O)O)NC(=O)C(NC(=O)C(CCNCS(=O)(=O)O)NC(=O)CCCCC(C)C)C(C)O)CCNC(=O)C(C(C)O)NC(=O)C(CCNCS(=O)(=O)O)NC(=O)C(CCNCS(=O)(=O)O)NC(=O)C(C(C)CC)NC1=O (stereo unspecified) ({Heptanoyl(6-Me)}-[ξDab(CH2SO3H)]T[ξDab(CH2SO3H)][Dab][ξDab(CH2SO3H)]II[ξDab(CH2SO3H)][ξDab(CH2SO3H)]T; lactam 4-C; configuration not given here) | 0.981 (inactive) |
| NC(N)=N/N=C/c1c(Cl)cccc1Cl | 0.986 (inactive) |
| C[C@@H]1C(=O)O[C@H]2[C@H]1CC[C@@]1(C)C=CC(=O)[C@@]3(C)O[C@@]213 | 1.01 (inactive) |
| Cc1ccnc(NS(=O)(=O)c2ccc(N)cc2)n1 | 0.997 (inactive) |
| COC(=O)C[C@H]1C(C)(C)C2(O)OC34CC2C(=O)[C@]1(C)C3CC[C@]1(C)C4=CC(=O)O[C@H]1c1ccoc1 (stereo partly specified) | 0.999 (inactive) |
